Task for the reader: assign each of the following compounds its reported log10 of solubility kinetic at 4 h.
# assayComment: Kinetic solubility of compound in water incubated for 4 hrs by HPLC-MS/MS analysis
# Format: physicochemical
# runConditions: read-out: Kinetic_solubility
Answers are given as log10 of solubility kinetic at 4 h in µM.

Worked set:
>>> df
                                        smi  valueobserved
0  Cc1ccc(Nc2nc(-c3cc(C(=O)Nc4ccccn4)no3)cs2)cc1           0.46
1   CCOC(=O)c1cc(-c2csc(Nc3ccc(C)cc3)n2)on1           1.74
2  Cc1ccc(Nc2nc(-c3cc(C(F)(F)F)ccc3F)cs2)cc1           1.38

// input: 5 compounds below; output: log10 of solubility kinetic at 4 h for each
1. Cc1ccc(Nc2nc(-c3cc(C(=O)Nc4ccccn4)no3)co2)cc1
2. CCOC(=O)c1cc(-c2coc(Nc3ccc(C)cc3)n2)on1
3. COc1ccc(-c2coc(Nc3ccc(C)cc3)n2)cc1
4. COc1ccc(-c2csc(Nc3ccc(C)cc3)n2)cc1
5. Cc1ccc(Nc2nc(-c3cc(C(F)(F)F)ccc3F)co2)cc1

1.38
0.96
-0.15
1.30
0.72

----------
# assayComment: Metabolic stability in human liver microsomes assessed as intrinsic clearance at 1 uM measured upto 60 mins by HPLC-MS/MS analysis
# Format: ADME, Microsome
# runConditions: read-out: CLH
observable: CLint scaled at 1 µM (mL/min/kg)
Answers are plain numbers, in mL/min/kg.

Worked set:
                                        smi  valueobserved
0  Cc1ccc(Nc2nc(-c3cc(C(F)(F)F)ccc3F)cs2)cc1           27.9
1  Cc1ccc(Nc2nc(-c3cc(C(=O)Nc4ccccn4)no3)cs2)cc1           38.8
2        COc1ccc(-c2coc(Nc3ccc(C)cc3)n2)cc1           29.9
3  Cc1ccc(Nc2nc(-c3cc(C(=O)Nc4ccccn4)no3)co2)cc1           41.5
4   CCOC(=O)c1cc(-c2coc(Nc3ccc(C)cc3)n2)on1            226
5        COc1ccc(-c2csc(Nc3ccc(C)cc3)n2)cc1           42.9
6  Cc1ccc(Nc2nc(-c3cc(C(F)(F)F)ccc3F)co2)cc1           27.6

With those in mind, consider the next molecule.
Entry "CCOC(=O)c1cc(-c2csc(Nc3ccc(C)cc3)n2)on1" — recorded CLint scaled at 1 µM = 189

----------
# assayComment: Kinetic solubility of compound in PBS at pH 7.4 incubated for 4 hrs by HPLC-MS/MS analysis
# Assay type: physicochemical
# runConditions: read-out: Kinetic_solubility
observable: solubility kinetic at 4 h (µM)
Answers are plain numbers, in µM.

                                        smi                 observable  valueobserved
0  Cc1ccc(Nc2nc(-c3cc(C(=O)Nc4ccccn4)no3)co2)cc1  solubility kinetic at 4 h            9.3
1        COc1ccc(-c2coc(Nc3ccc(C)cc3)n2)cc1  solubility kinetic at 4 h            1.1

// input: 6 compounds below; output: solubility kinetic at 4 h for each
1. COc1ccc(-c2csc(Nc3ccc(C)cc3)n2)cc1
2. Cc1ccc(Nc2nc(-c3cc(C(F)(F)F)ccc3F)co2)cc1
3. Cc1ccc(Nc2nc(-c3cc(C(F)(F)F)ccc3F)cs2)cc1
4. Cc1ccc(Nc2nc(-c3cc(C(=O)Nc4ccccn4)no3)cs2)cc1
5. CCOC(=O)c1cc(-c2csc(Nc3ccc(C)cc3)n2)on1
6. CCOC(=O)c1cc(-c2coc(Nc3ccc(C)cc3)n2)on1

1: 1.2; 2: 5.9; 3: 7.5; 4: 2.4; 5: 27.7; 6: 6.8

----------
# assayComment: Metabolic stability in human liver microsomes assessed as half life at 1 uM measured upto 60 mins by HPLC-MS/MS analysis
# Assay type: ADME, Microsome
Kindly return t if reported half-life at 1 µM is no lower than 20 min; return f if it is lower.

>>> df
                                        smi  classlabel
0   CCOC(=O)c1cc(-c2csc(Nc3ccc(C)cc3)n2)on1           f
1  Cc1ccc(Nc2nc(-c3cc(C(F)(F)F)ccc3F)cs2)cc1           t
2  Cc1ccc(Nc2nc(-c3cc(C(F)(F)F)ccc3F)co2)cc1           t
3  Cc1ccc(Nc2nc(-c3cc(C(=O)Nc4ccccn4)no3)co2)cc1           f
4  Cc1ccc(Nc2nc(-c3cc(C(=O)Nc4ccccn4)no3)cs2)cc1           f

Dear colleague, could you confirm whether "CCOC(=O)c1cc(-c2coc(Nc3ccc(C)cc3)n2)on1" has half-life at 1 µM at or above 20 min? f

Dear colleague, could you confirm whether "COc1ccc(-c2csc(Nc3ccc(C)cc3)n2)cc1" has half-life at 1 µM at or above 20 min? f

Dear colleague, could you confirm whether "COc1ccc(-c2coc(Nc3ccc(C)cc3)n2)cc1" has half-life at 1 µM at or above 20 min? t

----------
# assayComment: Glutathione reactivity of compound assessed as GSH adduct formation incubated for 24 hrs by HPLC-MS analysis
# Type: physicochemical
# Set-up: concentration or dose not given beside the values
Task for the reader: assign each of the following compounds its reported Activity.
Give bare numbers, in %.

>>> print(df.to_string())
                                        smi  observable  valueobserved
0  Cc1ccc(Nc2nc(-c3cc(C(F)(F)F)ccc3F)cs2)cc1    Activity           10.4
1  Cc1ccc(Nc2nc(-c3cc(C(F)(F)F)ccc3F)co2)cc1    Activity           14.2
2  Cc1ccc(Nc2nc(-c3cc(C(=O)Nc4ccccn4)no3)co2)cc1    Activity            2.1

// input: 2 compounds below; output: Activity for each
1. COc1ccc(-c2csc(Nc3ccc(C)cc3)n2)cc1
2. CCOC(=O)c1cc(-c2csc(Nc3ccc(C)cc3)n2)on1

13.9
3.7

// input: 3 compounds below; output: Activity for each
1. COc1ccc(-c2coc(Nc3ccc(C)cc3)n2)cc1
2. CCOC(=O)c1cc(-c2coc(Nc3ccc(C)cc3)n2)on1
3. Cc1ccc(Nc2nc(-c3cc(C(=O)Nc4ccccn4)no3)cs2)cc1

14.2
15.8
7.1
